Data origin: ChEMBL document CHEMBL3580555

System: NCI-H358
Experiment: Antiproliferative activity against human NCI-H358 cells after 72 hrs
Assay type: functional, cell-based
Conditions: NCI-H358, 72 h
outcome measure: IC50

# compound, outcome measure, reported result
data = [
    ("CNC(=O)c1ccc(-c2cc(F)c3ncc(Cc4ccc5ncccc5c4)n3c2)cc1F", "IC50", "> 50 µM"),
]

* * *

Test: Antiproliferative activity against human SNU16 cells after 72 hrs
Type: functional, cell-based
Conditions: SNU-16, 72 h
outcome measure: IC50

# compound, outcome measure, reported result
measured = [
    ("CNC(=O)c1ccc(-c2cc(F)c3ncc(Cc4ccc5ncccc5c4)n3c2)cc1F", "IC50", "> 50 µM"),
]
